target: Ubiquitin carboxyl-terminal hydrolase 17-like protein 5 (Homo sapiens); assay: ubiquitin-specific protease 17 DUB inhibitors, concentration-effect assay, cell-free, verification of initial screening actives (AID 1645864); conditions: purified USP17, ubiquitin-rhodamine cleavage fluorescence, 3 h
Active and inactive are the calls of the source.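 How the source made its calls: active means maximal inhibition of USP17 at or above 30% in the confirmation dose-response, a value not among the printed readouts; inactive means the rest.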
One label from this list, please: label 1 (active), label 0 (inactive)

{"Molecule": "CC(=O)c1cccc(NC(=O)c2ccc3[nH]c4c(c3c2)CC(C)CC4)c1 (centres undefined)", "Group": "label 0"}
{"Molecule": "CC1(C)CC(n2[nH]c(=O)c3c2NC(=O)CSC3c2ccc(OCc3ccccc3)cc2)CCO1 (centres undefined)", "Group": "label 1"}
{"Molecule": "CCc1ccc(NC(=O)COC(=O)c2n[nH]c3ccccc23)cc1", "Group": "label 1"}

[ask] For `Cc1ccccc1NC(=O)c1nc(-c2cn(Cc3ccc(F)cc3)nn2)no1` , what call appears in the results of this test?
[reply] label 1

[ask] Just curious, what result did `Nc1c(-c2ccc(Cl)cc2)cnc2cc(-c3ccc(Cl)c(Cl)c3)nn12` get here?
[reply] label 1

[ask] Field: outcome | Entry: `COc1cc(OC)cc(-n2c(=O)c3sccc3n(CC(=O)Nc3ccc(C)cc3)c2=O)c1`
[reply] label 1

[ask] Please indicate how the test categorized `O=C(Nc1cccc(Cl)c1)c1ncn2c1CNS(=O)(=O)c1ccccc1-2` .
[reply] label 1

[ask] Can you look up the reported call for `COC(=O)c1cc2c(ccn2C)n1CC(=O)NC1CC1` for me?
[reply] label 0

[ask] // outcome(item) with item = `O=C(Nc1ccc(-c2cn3ccsc3n2)cc1)c1ccc(Cl)c([N+](=O)[O-])c1`
[reply] label 1

[ask] Identify the outcome logged in this assay for the molecule shown: `O=C(NCc1cccc(NC(=O)C2CC2)c1)Nc1cccc2ccccc12`
[reply] label 1

[ask] What call does the record list for CCCn1cc(C(=O)N2CCC3(CC2)CC2(CO3)Nc3ccccc3-n3cccc32)c(C)n1 (centres undefined) ?
[reply] label 1

[ask] Name the outcome recorded for `COc1ccc(C(=O)Nc2ccc(S(=O)(=O)N3CCCCC3)cc2)cc1` in the assay.
[reply] label 0

[ask] // outcome(item) with item = O=C(NC(Cc1ccccc1)c1nc2ccccc2[nH]1)C1CC1 (centres undefined)
[reply] label 1

[ask] GET /call?item= `COC(=O)c1ccc(Cn2cnc3ccc(F)cc3c2=O)o1` returns the recorded outcome of this test.
[reply] label 0

[ask] // return assay outcome for `NS(=O)(=O)c1ccc(NS(=O)(=O)c2ccc(NC(=O)Nc3ccc(Cl)cc3)cc2)cc1`
[reply] label 1

[ask] For COc1ccc(NC(=O)C2[C@@H]3C(=O)N(C4CCCCC4)C(=O)[C@@H]3[C@H]3c4ccccc4C=CN23)cc1 (some centres undefined) , what call appears in the results of this test?
[reply] label 1

[ask] Check the results log: what was the call for CCN1CCCC1CN(Cc1cc2cc(OC)ccc2[nH]c1=O)C(=O)NCc1ccccc1 (centres undefined) ?
[reply] label 0

[ask] For this molecule, state the assay outcome: `Cc1noc(C)c1CN1CC[C@H]2O[C@H](C(=O)NCc3ccco3)CC[C@H]21`
[reply] label 0

[ask] What is the recorded call for this molecule in the test? `O=C(NCc1ccc(Cl)cc1)c1ccc(N2CCCS2(=O)=O)cc1`
[reply] label 0

[ask] For `COc1ccccc1NC(=O)Cn1cc(C(=O)c2ccc(C)cc2)c(=O)c2ccccc21` , which call appears in the assay record?
[reply] label 1

[ask] What did the test return for `CN(Cc1ccccc1)S(=O)(=O)c1ccc(S(=O)(=O)N2CCN(C(=O)c3cccnc3)CC2)cc1` ?
[reply] label 1

[ask] Tell me the recorded outcome of this test for O=C(NCC1CC1)C1CCCN(c2ccc(-c3ccccc3)nn2)C1 (centres undefined) .
[reply] label 0

[ask] # outcome recorded in this test, key = O=C(O)c1ccccc1C(=O)Nc1ccc(SC(C(=O)Nc2cccc(Cl)c2)c2ccccc2)cc1 (centres undefined)
[reply] label 1

[ask] Just curious, what result did CCCCCCCCCC(CCCCCCCCCC(=O)O)O[C@H]1O[C@@H](COC(C)=O)[C@H](O)[C@@H](O)[C@H]1OC(=O)CC(=O)O (some centres undefined) get here?
[reply] label 1

[ask] Which outcome was entered for the molecule `COC(=O)c1cc(C)sc1NC(=O)c1cccc(OC)c1OC` in this test?
[reply] label 0
